- experimental.target: Indoleamine 2,3-dioxygenase 1 (Homo sapiens)
- Sequence (P14902 whole entry): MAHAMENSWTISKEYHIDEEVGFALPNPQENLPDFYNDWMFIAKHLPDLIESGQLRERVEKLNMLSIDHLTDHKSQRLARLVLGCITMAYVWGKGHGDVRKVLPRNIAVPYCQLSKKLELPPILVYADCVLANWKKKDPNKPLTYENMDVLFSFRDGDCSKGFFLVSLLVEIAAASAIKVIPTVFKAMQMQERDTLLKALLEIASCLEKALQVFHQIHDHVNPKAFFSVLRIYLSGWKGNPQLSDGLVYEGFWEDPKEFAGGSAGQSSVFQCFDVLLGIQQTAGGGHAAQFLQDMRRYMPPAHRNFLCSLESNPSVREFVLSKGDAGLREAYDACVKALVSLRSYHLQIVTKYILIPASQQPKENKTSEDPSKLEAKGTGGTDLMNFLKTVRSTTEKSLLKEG
assay.endpoint: IC50 (nM)

Use the examples below as a reference point.
smiles.notation	result
O=C1c2ccccc2C(=O)c2c1nnn2-c1cnc(Cl)c(Cl)c1	113
N#Cc1ccc(-n2nnc3c2C(=O)c2ccccc2C3=O)cc1	26
O=C1c2ccccc2C(=O)c2c1nnn2-c1cccc([N+](=O)[O-])c1	29
O=C(O)c1cccc(-n2nnc3c2C(=O)c2ccccc2C3=O)c1	114
NS(=O)(=O)c1ccc(-n2nnc3c2C(=O)c2ccccc2C3=O)cc1	30
O=C1c2ccccc2C(=O)c2c1nnn2-c1ccc([N+](=O)[O-])cc1	33
COC(=O)c1ccc(-n2nnc3c2C(=O)c2ccccc2C3=O)cc1	34
O=C1c2ccc(O)cc2C(=O)c2c1nnn2-c1ccc(F)c(Cl)c1	355

P: O=C1c2ccccc2C(=O)c2c1nnn2-c1ccc(Cl)nc1
Q: COc1ccc2c(c1)C(=O)c1nnn(-c3ccc(F)c(Cl)c3)c1C2=O
Query: Of the two listed items, P and Q , which carries the larger IC50 figure? Mark your answer with the label of the selected entry.
Result: Q
(Q: 163 nM, P: 27 nM)

a: O=C1c2ccccc2C(=O)c2c1nnn2-c1ccc(Cl)c(Cl)c1
b: O=C1c2ccccc2C(=O)c2c1nnn2Cc1ccccc1
c: O=C1c2ccccc2C(=O)c2c1nnn2-c1ccc(Cl)c([N+](=O)[O-])c1
d: O=C1c2ccccc2C(=O)c2c1nnn2-c1ccccc1
Query: Task for the reader: rank each entry by its IC50, from the minimum upward. Write the labels, ordered according to the request.
Result: c, a, d, b
(c: 15 nM, a: 23 nM, d: 100 nM, b: 886 nM)

a: O=C1c2ccccc2C(=O)c2c1nnn2-c1ccc2[nH]cnc2c1
b: O=C1c2ccccc2C(=O)c2c1nnn2-c1cccc(Cl)c1
Query: Of the two listed items, a and b , which carries the larger IC50 figure? Mark your answer with the label of the selected entry.
Result: a

Data origin, for the record: ChEMBL document CHEMBL4706547
